From: PubChem BioAssay (NCI)

# System: CAKI-1 renal
# experimental-protocol: NCI tumour cell line growth inhibition, 48 h
reported-property: TGI

// worked examples, TGI included
molecule	target-or-test-system	TGI
O=C1c2ccccc2C(=O)c2c1c1cc(O)ccc1n2Cc1ccc(Cl)cc1Cl	CAKI-1 renal	14.4 µM
Clc1ccc(CCn2ccc3ccccc32)c(Cl)c1	CAKI-1 renal	> 100 µM
Nc1n[nH]c(=O)c2c1c(Br)cn2C1OC(CO)C(O)C1O (stereo unspecified)	CAKI-1 renal	> 100 µM
Cc1cn2cc(-c3ccncc3)nc2s1	CAKI-1 renal	> 100 µM
Nc1nc(NC(=O)C2=NS(=O)(=O)c3cc(S(N)(=O)=O)c(Cl)cc3N2)n[nH]1	CAKI-1 renal	> 100 µM

What value of measured TGI is listed for `Cn1c([N+](=O)[O-])cnc1/C=C1\Oc2ccc(Cl)cc2C1=O` ?
0.754 µM

What value of measured TGI is listed for `N#Cc1ccc(/C=C2\Cc3ccccc3C2=O)cc1` ?
> 100 µM

What value of measured TGI is listed for COc1ccc(/C=C2\CC(C)CC3C2=NN(C(C)=O)C3c2ccc(OC)c(OC)c2)cc1OC (stereo unspecified) ?
> 100 µM

What value of measured TGI is listed for `CC(C)(C)C(=O)Cc1cc2c(cc1C(=O)O)S(=O)(=O)NC(C(C)(C)C)=C2` ?
> 100 µM

What value of measured TGI is listed for CC1=CC(=O)C[C@]2(C)[C@@H](O)CC(C(C)CO)C[C@@H]12 (stereo partly specified) ?
> 100 µM

What value of measured TGI is listed for Cc1ccc(SCN2CCCCC2)cc1 (tested in a mixture with another compound) ?
26.3 µM

What value of measured TGI is listed for COc1ccc(C2CC(c3ccc(OC)c(OC)c3)=NN2C(=O)c2cc(OC)c(OC)c(OC)c2)cc1 (stereo unspecified) ?
> 24.9 µM

###

# Tested on: SK-MEL-5 melanoma
# experimental-protocol: NCI tumour cell line growth inhibition, 48 h
log10 TGI reference
Plainly stated, the numbers are log10 of TGI given in µM.

What value of measured log10 TGI is listed for `N=C(N)c1ccc(-c2ccc(-c3ccc(Cl)cc3)s2)s1` ?
0.94

What value of measured log10 TGI is listed for `Cn1cnc2nc(Cl)nc(Cl)c21` ?
1.03

What value of measured log10 TGI is listed for `CN(C)/C=C/c1ccnc2c1C(=O)c1ccccc1C2=O` ?
0.63

What value of measured log10 TGI is listed for `N#Cc1ccccc1C#C/C=C\C#Cc1cnccn1` ?
1.66

What value of measured log10 TGI is listed for CCCCCCCCCCCCOC1C(C(COC2OC(C(O)CO)C3OC(C)(C)OC23)OC(=O)Nc2ccc([N+](=O)[O-])cc2)OC2OC(C)(C)OC21 (stereo unspecified) ?
0.49

What value of measured log10 TGI is listed for C[N+]12C=CC=C1C(N1CCCC1)c1sc(-c3ccc(Cl)cc3)cc12 (stereo unspecified) ?
1.50

###

TGI reference
# Test system: BT-549 breast
# experimental-protocol: NCI tumour cell line growth inhibition, 48 h

// worked examples, TGI included
compound	target-or-test-system	TGI
COC(=O)[C@H]1ON2O[C@H](OC3CCCC[C@@H]3c3ccccc3)C[C@@H]3CC[C@H]1[C@@]32C (stereo partly drawn)	BT-549 breast	> 100 µM
COC[C@@H](N=Cc1ccc(OC)cc1)C(C)C	BT-549 breast	> 100 µM

// next item, TGI requested
What value of measured TGI is listed for `COc1cc(OC)c(-c2oc3ccccc3c(=O)c2O)c(OC)c1` ?
> 100 µM

###

TGI reference
# Test system: RXF 393 renal
# experimental-protocol: NCI tumour cell line growth inhibition, 48 h
Give your result in µM as a bare value.

// worked examples, TGI included
smiles-representation	measurement
COCN1C(=O)[C@@H]2C[C@@H](OC/C=C/CBr)CN2C(=O)c2ccccc21	51.3
O=C1/C(=C/c2ccc([N+](=O)[O-])s2)Oc2ccc(Cl)cc21	1.11

// next item, TGI requested
What value of measured TGI is listed for `CN(C)c1ccc(/C=C/C(=O)c2ccc(Nc3nc(Nc4ccc(F)cc4)nc(Nc4ccc(Cl)cc4)n3)cc2)cc1` ?
6.1

###

TGI reference
# Test system: COLO 205 colon
# experimental-protocol: NCI tumour cell line growth inhibition, 48 h

molecule	target-or-test-system	TGI
COC(=O)C1(C(=O)OC)CC2=C(S(=O)(=O)c3ccccc3)C[C@@H](C#N)[C@H]2C1	COLO 205 colon	> 100 µM
COC(=O)[C@H]1ON2O[C@H](OC3CCCC[C@@H]3c3ccccc3)C[C@@H]3CC[C@H]1[C@@]32C (stereo not given in full)	COLO 205 colon	> 100 µM

// map `COc1cc(/C=C/C(=O)C(C)(C)C)cc(OC)c1OC` to recorded TGI (system: COLO 205 colon)
> 100 µM

// map `CC(=O)/C=C\C(=O)NNS(=O)(=O)c1ccc(C)cc1` to recorded TGI (system: COLO 205 colon)
> 100 µM

// map Cc1[nH]c(=O)nc2c1C(=O)N(C(C)C)C(NC(C)C)S2 (stereo not given) to recorded TGI (system: COLO 205 colon)
> 100 µM

###

TGI reference
# Tested on: RPMI-8226 leukemia
# experimental-protocol: NCI tumour cell line growth inhibition, 48 h

compound	measurement
CCc1cccc(C(C)C)c1C1C(=O)C(=O)N(c2nc3ccccc3s2)C(=O)C1=O	> 100 µM
O=C(CN1C(=O)c2ccccc2C1=O)NC1(C(=O)O)CCCC1	> 100 µM
Nc1cc2[nH]c(=O)c3cc(Cl)ccc3c2cc1Cl	> 100 µM
Cc1c2cccc-2c(N(C)C)cc2c1[nH]c1ccccc12	5.73 µM
N#C/C(=C/NC(=S)Nc1ccc(S(N)(=O)=O)cc1)C(N)=O	> 100 µM

What value of measured TGI is listed for `C#Cc1cccc(NC(=O)Nc2cccc(NC(=O)CCl)c2)c1` ?
48.3 µM

What value of measured TGI is listed for Nc1n[nH]c(=O)c2c1c(Br)cn2C1OC(CO)C(O)C1O (stereo unspecified) ?
22.5 µM

###

# Tested on: DU-145 prostate
# experimental-protocol: NCI tumour cell line growth inhibition, 48 h; in the data active means GI50 below about 0.43 µM; inactive means the rest
Outcome (select one): true (1) (active), false (0) (inactive)

The examples below pair each entry with its known result.
compound	label-class
N#Cc1c(-c2ccc(Cl)cc2)n([O-])c2ccccc2[n+]1=O	false (0)
CCCCCCn1c(=N)n(CC(O)COc2cccc(C)c2)c2ccccc21 (stereo not given)	false (0)
CC(=O)OC1C(OC/C2=C/C3[C@@H](C(C)C)CC=C(C)[C@@H]3CC(OC(=O)/C=C/c3cn(C)cn3)[C@]3(C)C=C[C@@]2(O)O3)OCC(O)C1O (stereo not given in full)	true (1)

Which result was noted for this compound in the test: CCOC(=O)C(Cc1ccc(N(CCCl)CCCl)cc1)NC(=O)C(CC(C)C)NC(C)=O (stereo not given)
false (0)

Which result was noted for this compound in the test: `C#Cc1cccc(NC(=O)Nc2cccc(NC(=O)CCl)c2)c1`
false (0)

###

# System: SK-MEL-5 melanoma
# experimental-protocol: NCI tumour cell line growth inhibition, 48 h
TGI reference

// worked examples, TGI included
compound	measurement
COc1cc(OC)c(-c2oc3ccccc3c(=O)c2O)c(OC)c1	> 100 µM
Nc1cc(N)c2nc(-c3ccccc3)c(Sc3ccc(F)cc3)nc2c1	33.4 µM
C/C(=C1/N=C(c2ccccc2)OC1=O)c1cccs1	> 100 µM
COc1cc(C=Nc2ccc(Oc3ccc(Cl)cc3)c(Cl)c2)cc(OC)c1OC	34.9 µM

What value of measured TGI is listed for `CCCCc1ccc(C(N)=O)nc1` ?
> 100 µM

What value of measured TGI is listed for `COc1ccc(C(=O)CC(Cl)=C(Cl)Cl)cc1` ?
> 100 µM

What value of measured TGI is listed for CC1(C)CC(=O)C2=C(C1)OC1=C(CC(C)(C)CC1=O)C2c1ccccc1Cl (centres undefined) ?
> 100 µM

What value of measured TGI is listed for `C[N+](C)([O-])Cc1cccc(NC(=O)c2ccc(C(=O)Nc3cccc(C[N+](C)(C)[O-])c3)cc2)c1` ?
> 100 µM

What value of measured TGI is listed for `COc1cc2c(c(OC)c1OC)-c1c(c3ccc([N+](=O)[O-])cc3c(=O)n1CCCN=[N+]=[N-])C2=O` ?
> 100 µM

###

GI50 reference
# Tested on: SK-MEL-5 melanoma
# experimental-protocol: NCI tumour cell line growth inhibition, 48 h

// worked examples, GI50 included
compound	GI50
C=CC(=O)N1CC[C@@H](Oc2nc(Nc3ccc(N4CCC(N5CCN(C)CC5)CC4)cc3)c(C(N)=O)nc2CC)C1	> 100 µM
CN(C)c1ccc(/C=C/C(=O)c2ccc(Nc3nc(Nc4ccc(F)cc4)nc(Nc4ccc(Cl)cc4)n3)cc2)cc1	2 µM
O=C(/C=C\c1ccc(Cl)c(Cl)c1)c1ccccc1	16.7 µM
Nc1cc(N)c2nc(-c3ccccc3)c(Sc3ccc(F)cc3)nc2c1	15.6 µM
COc1ccc(C2CC(c3ccc(OC)c(OC)c3)=NN2C(=O)c2cc(OC)c(OC)c(OC)c2)cc1 (configuration not stated)	0.558 µM
Cc1cc(N2CCOCC2)nc(N(CCNc2ccnc3cc(Cl)ccc23)Cc2cccs2)n1	1.59 µM

// next item, GI50 requested
What value of measured GI50 is listed for `CN(C)CCCn1c2c(c3ccc([N+](=O)[O-])cc3c1=O)C(=O)c1ccccc1-2` ?
3.79 µM
